src = paper PMC10786692

# test-method-notes: Plasma pharmacokinetics of ceralasertib (HPLC-MS/MS, NCA)
# Type: in vivo, human
# reported-conditions: human, plasma, oral, 240 mg, 240 mg day 15; 8 h; read-out: Plasma concentration, individual patients
parameter: concentration at 8 h (ng/mL)
Write the number in ng/mL without appending the unit.

# query: concentration at 8 h of entry C[C@@H]1COCCN1c1cc(C2([S@](C)(=N)=O)CC2)nc(-c2cc[nH]c3nccc2-3)n1
10200

###

# test-method-notes: Plasma pharmacokinetics of ceralasertib (HPLC-MS/MS, NCA)
# Type: in vivo, human
# reported-conditions: human, plasma, oral, 40 mg, 40 mg day 1; 4 h; read-out: Plasma concentration, individual patients
# Experimental: Intensive PK sampling in part A occurred after a single dose from predose up to 24 to 72 hours and again at day 15 and day 29 of continuous dosing. Participants fasted for 1 hour before and 2 hours after dosing for PK assessment. In part B, sampling coincided with day 15 PD assessments. […] Evaluated PK […] maximum observed plasma concentration (Cmax), time to Cmax (tmax), and apparent terminal half-life (t1/2) calculated as ln/lambda-z where lambda-z (lz) is the apparent terminal phase rate- […]
parameter: concentration at 4 h
Number plus unit, in that order.

# query: concentration at 4 h of entry C[C@@H]1COCCN1c1cc(C2([S@](C)(=N)=O)CC2)nc(-c2cc[nH]c3nccc2-3)n1
1.64 µg/mL
